measurement-target: SARS-CoV-2 spike S1 protein (SARS-CoV-2, UniProt P0DTC2 16-685)

binder: AB-009269 (antibody, V domains shown) VH: QVQLVQSGAEVKKPGASVKVSCKASGYTFTSYGISWVRQAPGQGLEWMGWISAYNGNTNYAQKLQGRVTMTTDTSTSTAYMELRSLRSDDTAVYYCAREGDCSGGSCYSGYYYYYGMDVWGQGTTVTVSS VL: EIVLTQSPATLSLSPGERATLSCRASQSVSSYLAWYQQKPGQAPRLLIYDASNRATGIPARFSGSGSGTDFTLTISSLEPEDFAVYYCQQRSNWGTFGPGTKVDIK
kon / M⁻¹ s⁻¹: 38500
